src = the supplement of paper PMC8728848

- system.name: Gal(b1-4)GlcNAc(b1-3)Gal(b1-4)GlcNAc(b1-6)[Gal(b1-3)]GalNAc
- run.description: glycan array binding signal (z-score within array); higher = stronger binding
- measurement.setup: glycan notation: IUPAC condensed, linker removed
The full list was thinned out, with the strongest signals kept by preference.
test.readout: glycan array binding signal (z-score)
Respond with the number and no other words.

Look over these answered cases.
binder	test.readout	observed.result
EUL D1A (Oryza sativa) (protein) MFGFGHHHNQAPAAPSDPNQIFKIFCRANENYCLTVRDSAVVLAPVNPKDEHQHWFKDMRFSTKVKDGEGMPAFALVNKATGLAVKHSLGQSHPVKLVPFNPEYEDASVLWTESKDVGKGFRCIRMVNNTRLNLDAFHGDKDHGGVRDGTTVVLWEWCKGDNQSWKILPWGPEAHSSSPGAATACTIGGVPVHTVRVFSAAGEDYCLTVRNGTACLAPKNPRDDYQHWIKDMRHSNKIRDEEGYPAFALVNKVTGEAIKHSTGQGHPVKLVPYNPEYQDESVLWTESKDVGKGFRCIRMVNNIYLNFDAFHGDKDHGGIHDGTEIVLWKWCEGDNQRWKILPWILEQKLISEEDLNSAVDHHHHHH	glycan array binding signal (z-score)	2.71
MPA (Maclura pomifera), P18674 (protein) GVTFDDGAYTGIREINFEYNSETAIGGLRVTYDLNGMPFVAEDHKSFITGFKPVKISLEFPSEYIVEVSGYVGKVEGYTVIRSLTFKTNKQTYGPYGVTNGTPFSLPIENGLIVGFKGSIGYWLDYFSIYLSL	glycan array binding signal (z-score)	2.93

# input for lookup
Enquiry: For TAL6-4LysM (Trichoderma atroviride) (protein) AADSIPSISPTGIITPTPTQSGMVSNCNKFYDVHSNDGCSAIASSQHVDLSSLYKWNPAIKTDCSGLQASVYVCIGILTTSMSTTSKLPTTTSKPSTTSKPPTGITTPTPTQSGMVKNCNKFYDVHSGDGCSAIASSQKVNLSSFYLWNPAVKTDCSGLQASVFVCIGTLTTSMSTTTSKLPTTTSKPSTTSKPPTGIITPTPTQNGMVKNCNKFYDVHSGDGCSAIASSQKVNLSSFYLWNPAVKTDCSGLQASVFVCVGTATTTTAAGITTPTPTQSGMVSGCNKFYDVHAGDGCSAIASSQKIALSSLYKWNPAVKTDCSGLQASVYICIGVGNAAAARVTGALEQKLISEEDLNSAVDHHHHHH , what is its reported glycan array binding signal (z-score)?
Return: 1.17
